Origin of values: patent US20120282269A1

System name: T1, natural human IL-23 from activated THP-1 cells (human, UniProt P29460 23-328)
T1 sequence 1: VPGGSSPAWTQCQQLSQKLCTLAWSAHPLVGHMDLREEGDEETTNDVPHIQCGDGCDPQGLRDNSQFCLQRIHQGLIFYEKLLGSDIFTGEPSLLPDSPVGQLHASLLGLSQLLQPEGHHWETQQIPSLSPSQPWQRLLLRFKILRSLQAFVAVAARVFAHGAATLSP
T1 sequence 2: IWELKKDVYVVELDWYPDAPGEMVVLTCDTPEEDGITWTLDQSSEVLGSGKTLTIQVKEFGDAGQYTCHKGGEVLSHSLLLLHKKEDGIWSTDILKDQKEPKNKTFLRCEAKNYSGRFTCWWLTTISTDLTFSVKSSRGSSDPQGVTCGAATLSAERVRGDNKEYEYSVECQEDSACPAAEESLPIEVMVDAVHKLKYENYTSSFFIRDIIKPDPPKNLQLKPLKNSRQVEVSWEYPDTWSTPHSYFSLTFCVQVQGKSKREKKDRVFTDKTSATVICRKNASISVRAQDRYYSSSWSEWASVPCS
Procedure summary: cell-based or functional assay
Metric name: IC50, inhibition of IL-17 production from IL-23 stimulated mouse splenocytes (nM)
Numbers only here, please. The scale is nM.

Given the entry 27G8 (antibody, V domains shown) VH: QVQLQQSDAELVKPGASVKISCKVSGYTFTDHTIHWMKQRPEQGLEWIGYIYPRDGYPKFNEKFKGKATLTADKSSSTAYMQLNSLTSEDSAVYFCARRPPYYAMDYWGQGTSVAVSS VL: DIVLTQSPASLAVSLGQRATISCRASKSVSTSGYSYIHWYQQKPGQPPKFLIYLASNLDSGVPARFSGSGSGTDFTLNIHPVEEEDAATYYCQHSRELPYTFGGGTKLEIK , report its measured IC50, inhibition of IL-17 production from IL-23 stimulated mouse splenocytes.
5

What measured IC50, inhibition of IL-17 production from IL-23 stimulated mouse splenocytes goes with 31H9 (antibody, V domains shown) VH: EVQLQQSGPELVKPGASVKMSCKASGYTFTRYLMHWVKQKPGQGLEWIGYINPYNDGTNYNEKFKGKATLTSDKSSSTAYMELSSLTSEDSAVYYCSLNWDYAYWGQGTLVTVSA VL: DIVMTQSPATLSVTPGDRVSLSCRASQSISDYLHWYQQKSHESPRLLIKYASQSISGIPSRFSGSGSGSDFTLSINSVEPEDVGVYYCQNGHSFPYTFGGGTKLEIK ?
2

Reported IC50, inhibition of IL-17 production from IL-23 stimulated mouse splenocytes, binder 34D9 (antibody, V domains shown) VH: EVQLQQSGPELVKPGASVKIPCKASGYTFTDYNMDWVKKSHGKSLEWIGDINPHNGGTIYNQKFKGKATLTVDKSSSTAHMELRSLTSEDTAVYYCARNYYGSSYGWYFDVWGTGTTVTVSS VL: DIMMTQSHKFMSTSVGDRVSITCKASQDVGNAVVWYQQKPGQSPKLLIYWASTRHIGVPDRFTGSGSGTDFTLTITNVQSEDLADYFCQQYSSYLTFGAGTKLELK : ____
0.456
